Biological target: T1, EsCas13d, nuclease-dead (Eubacterium siraeum, UniProt B0MS50, R295A;H300A;R849A;H854A)
T1 sequence: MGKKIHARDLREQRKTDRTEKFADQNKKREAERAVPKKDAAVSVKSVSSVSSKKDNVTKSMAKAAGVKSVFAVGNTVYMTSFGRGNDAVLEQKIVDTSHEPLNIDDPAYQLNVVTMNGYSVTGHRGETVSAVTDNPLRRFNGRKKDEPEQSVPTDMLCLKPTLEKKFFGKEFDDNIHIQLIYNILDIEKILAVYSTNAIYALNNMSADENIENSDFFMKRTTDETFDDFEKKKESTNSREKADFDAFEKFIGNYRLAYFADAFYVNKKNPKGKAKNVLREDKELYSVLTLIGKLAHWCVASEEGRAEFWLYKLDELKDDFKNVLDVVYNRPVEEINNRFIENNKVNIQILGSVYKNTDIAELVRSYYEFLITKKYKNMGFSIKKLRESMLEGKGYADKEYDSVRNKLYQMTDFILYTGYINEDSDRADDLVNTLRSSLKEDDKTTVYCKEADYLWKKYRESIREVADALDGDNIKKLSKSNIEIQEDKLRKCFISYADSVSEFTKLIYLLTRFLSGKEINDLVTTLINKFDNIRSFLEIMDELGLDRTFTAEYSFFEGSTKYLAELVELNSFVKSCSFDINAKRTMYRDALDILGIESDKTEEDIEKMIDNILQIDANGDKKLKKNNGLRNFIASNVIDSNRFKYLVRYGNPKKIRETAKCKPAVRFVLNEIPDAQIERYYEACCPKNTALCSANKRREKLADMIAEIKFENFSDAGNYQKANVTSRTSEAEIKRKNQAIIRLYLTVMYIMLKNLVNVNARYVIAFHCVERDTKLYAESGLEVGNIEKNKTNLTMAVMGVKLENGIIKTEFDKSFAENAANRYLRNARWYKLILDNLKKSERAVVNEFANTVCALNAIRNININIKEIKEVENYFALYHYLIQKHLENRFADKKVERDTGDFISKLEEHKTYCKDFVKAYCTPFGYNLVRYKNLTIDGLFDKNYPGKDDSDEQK
Assay: crRNA (strand 1, pre-loaded); Mg2+; 40 mM Tris-HCl pH 7.5, 150 mM NaCl, 6 mM MgCl2, 1 mM DTT, 0.1% Tween-20, 0.2 mg/ml BSA; 25 C; 10 min per concentration, then washed
Conditions: tags: His6-TwinStrep-SUMO cleaved; N-terminal SNAP kept (SNAP-Surface 488); label: 3' end held by stalled T7 RNA polymerase
Value Kind: Kd (nM)
Give just the numeric value; nM need not be written.

Examples with answers:
>  <Binder>
target 3 insG 3' of 8,insC 3' of 3 (mixed) RNA 1: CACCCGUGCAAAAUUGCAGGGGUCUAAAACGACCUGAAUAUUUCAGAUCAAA RNA 2: GGGAAUGGAUCCACAUCUACGAAUUCGUUUUUGAUCUGAAAUAUGUCAGGCUCUGCAGAUCGGAAGAGCACACGU

>  <Endpoint Unit>
nM

>  <Value Reported>
38.8

$$$$
>  <Binder>
target 2 MT 5'PFS UUA 3'PFS UAC (mixed) RNA 1: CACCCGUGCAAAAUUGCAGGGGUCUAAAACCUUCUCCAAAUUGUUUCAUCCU RNA 2: GGGAAUGGAUCCACAUCUACGAAUUCUUAAGGAUGAAACAAUUUGGAGAAGUACAGAUCGGAAGAGCACACGU

>  <Endpoint Unit>
nM

>  <Value Reported>
37

$$$$

Query: # input binder: target 1 G5A,U8G (mixed) RNA 1: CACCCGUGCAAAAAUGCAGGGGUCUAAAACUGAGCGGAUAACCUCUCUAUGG RNA 2: GGGAAUGGAUCCACAUCUACGAAUUCGUACCAUAGAGAGGUUAGCCACUCACCGAGAUCGGAAGAGCACACGU ; wanted: its Kd
Result: 38

Query: # input binder: target 3 insC 3' of 5,insU 3' of 5 (mixed) RNA 1: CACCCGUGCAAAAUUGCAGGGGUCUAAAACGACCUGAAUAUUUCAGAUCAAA RNA 2: GGGAAUGGAUCCACAUCUACGAAUUCGUUUUUGAUCUGAAAUAUUCACUGGUCUGCAGAUCGGAAGAGCACACGU ; wanted: its Kd
Result: 5.23

Query: # input binder: target 2 MT 5'PFS GCA 3'PFS AAA (mixed) RNA 1: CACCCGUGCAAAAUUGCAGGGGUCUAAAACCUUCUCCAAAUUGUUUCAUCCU RNA 2: GGGAAUGGAUCCACAUCUACGAAUUCGCAAGGAUGAAACAAUUUGGAGAAGAAAAGAUCGGAAGAGCACACGU ; wanted: its Kd
Result: 6.5

Query: # input binder: target 1 A1U,G13A (mixed) RNA 1: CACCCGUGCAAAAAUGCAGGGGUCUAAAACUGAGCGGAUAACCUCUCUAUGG RNA 2: GGGAAUGGAUCCACAUCUACGAAUUCGUACCAUAGAGAAGUUAUCCGCUCUCCGAGAUCGGAAGAGCACACGU ; wanted: its Kd
Result: 6.4

Query: # input binder: target 1 insC 3' of 19,insA 3' of 7 (mixed) RNA 1: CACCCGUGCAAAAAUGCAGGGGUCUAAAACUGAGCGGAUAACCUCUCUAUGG RNA 2: GGGAAUGGAUCCACAUCUACGAAUUCGUACCAUCAGAGAGGUUAUCACGCUCACCGAGAUCGGAAGAGCACACGU ; wanted: its Kd
Result: 26.6
